assay: Acute toxicity assay in shrimp larvae; format: in vivo, Litopenaeus vannamei; conditions: Litopenaeus vannamei (shrimp) larvae, in vivo, other: immersion of larvae in test solutions, 24 h exposure, 28 °C, 95% CI in brackets, read-out: LC50 (mg/L; 95% CI) 24 h
measurement_label: LC50 at 24 h (mg/L)
Please give a number only; it is taken to be in mg/L.

// known answers, use as guide
1. O=c1oc2ccccc2c2c1C(c1ccc([N+](=O)[O-])cc1)NC(=S)N2 (stereo not shown); 13.6
2. O=c1oc2ccccc2c2c1C(c1ccc(Cl)cc1)NC(=S)N2 (stereo not shown); 8.85
3. N#Cc1ccc(C2NC(=O)Nc3c2c(=O)oc2ccccc32)cc1 (stereo not shown); 19.8

Query string: Query (compound): COc1ccc(C2C(C#N)=C(N)Oc3c2c(=O)oc2ccccc32)cc1 (stereo not shown) ; field requested: LC50 at 24 h
Result string: 22.3
